Each record here notes measured protease stability score.
assayRemarks: protease stability score; higher = more stable; yeast display proteolysis, trypsin and chymotrypsin;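 note: log10 excess protease needed over predicted unfolded state with 0 meaning unfolded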

>  <chainSequence>
DEEEDKKVKHLITNIREGNSDDFIKMMDPNARLVYGDQRVKGTSQAREFVHSLHEQARIDLEVKHITAHNGRIDVTVKMELEVNGQPYRFSVNVIVHIRNGKVQEVVFQFDPRDEQRNRK

>  <protease stability score>
1.24

$$$$
>  <chainSequence>
DEHEKMKKHMTEWRSAFKRGDPDTVRKLADKDVDVEVGDKVLHGREQVANHVVDLARTVDHVDIRIETMEVNGDHFVLVMSAVFDVNGKRDERKFVLVAKLHNGTIKVKNMKRS

>  <protease stability score>
0.07

$$$$
>  <chainSequence>
EEEAREAVKRVMKAHETNDPDKMMQNFDPNAKLTIGDTELHGREEARKHWEDNLKEIEIRIETWHVEDEGDKATLKVVYVREHNGQPTRERAVVYLRVKNGKVQTVSNQSRK

>  <protease stability score>
0.292

$$$$

Lab note: measured protease stability score of `DHRAFELAKNILEAIRTNDPDTVKHQLDKNATLRYGEFEVHGREDASRFVETLIRKMRVEFDIKDYHVHGDSAVMDADVKVERNGRPDTRKLNVNVNVHNGKMSHIVFELRG` was 0.693

Lab note: measured protease stability score of `DHHARTQAEHLLEALRNGNEDQLMKLIDPNARFRYGDKEVHGSEQFREQVHTLKREIRMDVKEYRFTVEGNRLVVKVTAILDTNGKPDTRDVDNHAIVHNGKIKQFTVDNKS` was -0.134

Lab note: measured protease stability score of `DDDAQNTLSDRINLIKQGNKEEVDKQADPNATVQVGDKKVQGREEIRRWIKHVKDQLNVQIEIKHVEAQGNKVRIDASFRARINGKPVRIRFILIADMHNGRFKRVVMHLDEDQQRKYEK` was 0.943

Lab note: measured protease stability score of `DERDADEIAKVFVHNNPKDIERMVDEDVRIIIGDFEVQGREEARKYAEQLEKHIDHNHVRDYRVEGNKVTLDVNVVVNGRSLTFVVHITMHNGHVKEIRVQFTSPEDQKVFKEVVG` was 0.719

Lab note: measured protease stability score of `DEETAQKIVEKLATGDEEQKREQMDKDVTVVIGDKELRGRETIVNQLRKIRKQVDHLEVKTYSAHNGRAEIVMRMQVNGRTMEYSIRVQVHNGRIQHIKFRVRNHEVQELLDRLLS` was 0.464

Lab note: measured protease stability score of `DEDLARRLAEEMVKKATHGDEDTVRELIDPNVKFRYGDKDVEGRENFATELAEDMRTADHVHLKQVTIRGDTVQIDMRMVFDGSEDRHDLRLRAHNGKVQEVTIDQG` was -0.112

Lab note: measured protease stability score of `DHRALSQVEQFMNALQQGDEKRLMELADPNVKIIIGDKDVHGREEWDRQVHKRRHEIQYEVRRVKMHVNGDTVHVKIRAVATINGKPFEVEYTANFKIDNGHITHIDWQLPDEYLKRVKS` was 0.062

Lab note: measured protease stability score of `DEERQHRVAKSLVDILKDGNPRKMKELMDKDATVRVGDKNIRGRKNIATFWTDVRRRIDHVEIKHVDVRGDKIDMNINFDVNGRHVHYTINARVRNGKLTSMHLDPDNLEHLKE` was 0.591

---

assayRemarks: protease stability score; higher = more stable; yeast display proteolysis, trypsin and chymotrypsin;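 note: log10 excess protease needed over predicted unfolded state with 0 meaning unfolded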
recordedMetric: protease stability score
Write no unit; give the number alone.

Example cases with answers are listed next.
>  <chainSequence>
DDEEKHKLADEVLHILRTGDHDSMARLADENAKAEIGDSRFHGRDHIRKLVKEFRDTADHIRVIDYRVKGDKIVLRMEFVFNGKTSEVNVVMRFHNGRIKDIEVDPTQVRQMEK

>  <protease stability score>
1.03

$$$$
>  <chainSequence>
DEDALKQMHENLENIKEGDPDKIKKMFDENARVEVGDKVLNGRDQASKFWSELRDQINIHIRDVKLSVSGEEVTINIDARFTHNGQPQTSIFRIEAELHNGTIKSLRVKLDG

>  <protease stability score>
2.02

$$$$
>  <chainSequence>
DHRAVEVIKEMFKALQTGDERRIVEMADKDATATVGDKRVHGMKEAAHDIATEFNEMRFQLSIKRVQHSGNNVKADVEATFHHNGKPRKVQVVIVLRLHNGKVQEMSIRNDG

>  <protease stability score>
1.17

$$$$
>  <chainSequence>
DEKRAHDFAQQVIRVIQDGDPREAQKLADENVRVEYGDRTVHGKEQISNFAQEFRTRVDHVKIDTWHAQGDKIVIHLKVNVNGREKRVVVVVEVHNGRVKSLVYKDG

>  <protease stability score>
1.24

$$$$
>  <chainSequence>
DDEVRKVVHEWWKALRTGDPDLAKKLADPNAEFQIGDKRVHGMKDFARKLTEEHKESEIEINIRHIDAQGDNVNVHFEFQIDRNGRPQTNTQTVHLRVNNGKITRFEMRTQS

>  <protease stability score>
1.16

$$$$
>  <chainSequence>
DERHAHTVVKKIIDALHTGDEDTLRHLADKDVRLQVGEKEVHGREEFAKEMSKFHKRVDHMEIKDVTNTGDHASVKYSAKFDGKTFNARADLVVHNGKLKKMHIDPERQKQMDS

>  <protease stability score>
0.535

$$$$

Lab note: measured protease stability score of `DDRNKHIFKKIIEAERTGDEDKLRQNFDPNARFRIGNQTYHGREHWADRVSDLRKKIRVEIKIKRVQVDGDKVVVKYQVVYNVNGRPKKDTFRVVLHFQNGKAKHRTFQIDEERKEHLDS` was 0.252

Lab note: measured protease stability score of `DEHAFKRIDEMLTAFQKNDPNKIQEYMDENVKVQYGDKSVHGRDEIAKSKQETREHLRLEIRIENYDVNGDTIHVHAKVIFNVNGDPLKFEVDIVARLHNGKIKSMQLQFSHEQQKKVES` was 0.682

Lab note: measured protease stability score of `DEDASRHVRDMIRALQTGDRDKVARYIDPNATMQVGDKRYHGNERIKEQVKRTKDTMRYHMEIKDVHVEGDHIKVDFTFSNNKNGTPTSDRAQIDIRMTNGHATSIVLHNNK` was -0.001

Lab note: measured protease stability score of `DEDDQVRKILETQDRAMRTGDEDTYVNQADKDVRVKVGDKKLRGREEWKKEVTRIIERVDHFDVHIDHIDHQGDKIVIRQVIVLEHDGRRDSKTYNMTARNKNGRVKWKEVTEK` was -0.205

Lab note: measured protease stability score of `DEENAHEAVRIWETGDPQENADLVDPNVHARYGDKKIRGREDMEEFWRRMHHQIDHKDVRDIQVSGNHIEIDMEINVDGVRARYVARYHMDNGKIKSANAEFRDPDEKQDIRRALD` was 0.275

---

assayRemarks: protease stability score; higher = more stable; yeast display proteolysis, trypsin and chymotrypsin;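 note: log10 excess protease needed over predicted unfolded state with 0 meaning unfolded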
recordedMetric: protease stability score
Write no unit; give the number alone.

>  <chainSequence>
DDQLRKKVKTFIRVIQSGNTQEAKKLMDPNARYHVGDKTVDGMDQWATIMTKLKDEMRIQLNVTSVTATNGHIHVRVEVNVDVNGRPINVTVNVYFHIENGRIQRVHYQMDPDEFKHIQR

>  <protease stability score>
-0.135

$$$$
>  <chainSequence>
DEDKQAKEMMKRFVHMMQEGDPSEAKRLFDKNARLVVGDKRFHGQHEASKFAEEIKKRYDKVHVELKDLKVHGDKVDAKAKVVLNDNGQKDTHEVVITALFHNGRIKVQEVRVQ

>  <protease stability score>
0.983

$$$$
>  <chainSequence>
DREQQHVAREFLEAHNEGDEDRMVQLADPNARVHVGDKEVHGREELKKWVRDVEKKMNVQIDVRSIHAHNGKIRITARISFKINGEPRSDRIRFDFRAHNGTLKDFHLKVSEEQRKKKQQ

>  <protease stability score>
0.075

$$$$
>  <chainSequence>
DETAQNLIKELNRAWNENNENQVAELMDPNAKLQIGNKVLTGRKQRMEEIRSQTHSMRLDYKYEDVKAKNGKVTANLRYVADVNGRPVDVTVSVKADVHNGVIVRLEVRLPPDVEEELKR

>  <protease stability score>
0.219

$$$$

Switching to the query record.
Lab note: measured protease stability score of `DEEAEKVYRKMLHALRTGNEHQLKKLMDPNVHVKVGDKHIHGREDVAQEQRTDRQRWRNDQQLVTFHAEGDQVEFTVEYVIEVNGQPDKDRYKAFFRFDNGKIKEFQVDIDPKELKEQLN` was 0.096

---

assayRemarks: protease stability score; higher = more stable; yeast display proteolysis, trypsin and chymotrypsin;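 note: log10 excess protease needed over predicted unfolded state with 0 meaning unfolded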
recordedMetric: protease stability score
Write no unit; give the number alone.

Example cases with answers are listed next.
>  <chainSequence>
DEDANDVVRKYIEAVNTGDPDQVNELVDPNVRVEVGDKTLSGHEEIRKEQQERTKQSRVEIEVKQMKVHGDNIILYAVVRYNHNGKPSSRHVKMTFSAHNGHFKHIRVHDDQ

>  <quantitativeResult>
0.809

$$$$
>  <chainSequence>
DDNEVETVRELIEQLETGDPDKFKEMVDKDVNINVGNKHVHGREEAVEQIRKEAREISFRIKVDRVEAHNGHVRVDFKFDAEVNGQPRSFRAIMVLEIEDGVVKHIELQMDRNQQQRLEK

>  <quantitativeResult>
1.1

$$$$
>  <chainSequence>
DEEHKAKDAARRMQEVARRNDPTQAKEMIPPDAKVRVGDKDVHGREQVVTLFKKIADQADHLDIQVSSVDIQGDRAVVVFNLRYTINGQDRRNRVVVIFRDHNGHVMILEVQEQ

>  <quantitativeResult>
0.514

$$$$
>  <chainSequence>
DEEHQHSLARTLATALRTGDPEKMKDLADKDVKVVVGDKHIKGRKDAKKWAKDWRDRYDHAQVDDVNVQGENVRIVMNVEVDGHNVVVVMTAIIDGDQVKNVKVTARNEEQEKKMKK

>  <quantitativeResult>
-0.268

$$$$

Lab note: measured protease stability score of `DEDEVRKAKKYIENWEQGNPKDLQEQADENASAQYGDKRIHGMTKIAKFVHKEHEESRVEIQDVQIEAHNGTVHIEIRAIFDHNGKPSQKKVFMSMTMHNGKVKDAELHSDK` was 0.155
